tested on: PPARg:RXRa DBDmut IVT, anti-RXR (DBD mutation: RXRa K156A/R161A, NR concentration 270 nM, RXRa partner concentration 90 nM); experiment: PBM binding z-score (relative to random genomic background probes); higher = stronger binding; sequences stand for … in GC…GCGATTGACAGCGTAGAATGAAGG
REPORTED_METRIC: PBM binding z-score
Simply state the number, no unit and no words.

Below, each entry is followed by its recorded PBM binding z-score result.
- SEQUENCE_ENTRY: "GCGACTGGGGCATCAGCAGGCTACCATAACTTAA"
  PBM binding z-score: 4.01
- SEQUENCE_ENTRY: "ACTATTCGTTGACTTAGGGCAACCGATACGACGC"
  PBM binding z-score: -0.214
- SEQUENCE_ENTRY: "GCGACTGTGGCATCAGCAGGTTACCATAACTTAA"
  PBM binding z-score: 0.287

Look up PBM binding z-score of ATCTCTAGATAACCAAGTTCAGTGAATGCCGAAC and report it.
-0.316

Look up PBM binding z-score of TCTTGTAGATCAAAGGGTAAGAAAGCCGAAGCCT and report it.
1.69

Look up PBM binding z-score of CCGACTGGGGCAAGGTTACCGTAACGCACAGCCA and report it.
3.53

Look up PBM binding z-score of GCTATTAGTTGAAAGGGGAACCGAATGATTCTCG and report it.
0.8

* * *

test system: RARg homodimer (NR concentration 270 nM); assay: PBM binding z-score (relative to random genomic background probes); higher = stronger binding; sequences stand for … in GC…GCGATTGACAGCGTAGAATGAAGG
Measured PBM binding z-score, listed per entry for reference.
Simply state the number, no unit and no words.

Below, each entry is followed by its recorded PBM binding z-score result.
- SEQUENCE_ENTRY: "CCTTACGGGACACTGACAGGTTATAGCATTTGGA"
  PBM binding z-score: 0.903
- SEQUENCE_ENTRY: "CCTCCAAGGTCAATGCTAGGTCAGTGAAAGCATT"
  PBM binding z-score: 6.33
- SEQUENCE_ENTRY: "CGAACTAGGTCAAGGACGGTGAATCTCCGCACGC"
  PBM binding z-score: 4.38
- SEQUENCE_ENTRY: "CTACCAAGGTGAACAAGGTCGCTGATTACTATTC"
  PBM binding z-score: 1.55
- SEQUENCE_ENTRY: "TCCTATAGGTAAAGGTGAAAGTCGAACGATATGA"
  PBM binding z-score: 1.3

Look up PBM binding z-score of TTACCAAGGTGAACGTCGTTGATCCCTCTGTAGA and report it.
0.629

Look up PBM binding z-score of CGAACTAGGTTAAGGACAGTGAATCTCCGCACGC and report it.
0.965

* * *

tested on: PPARg:RXRa (NR concentration 180 nM, RXRa partner concentration 90 nM); test: PBM binding z-score (relative to random genomic background probes); higher = stronger binding; sequences stand for … in GC…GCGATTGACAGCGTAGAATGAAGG
Given measured PBM binding z-score, output label 1 if it is greater than or equal to 2 and label 0 if not.

- SEQUENCE_ENTRY: "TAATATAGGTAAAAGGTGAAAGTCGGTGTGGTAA"
  CLASS_LABEL: "label 1"
- SEQUENCE_ENTRY: "ACCTCTAGGTAACCAAGTTCAGTGAATGCCGAAC"
  CLASS_LABEL: "label 0"
- SEQUENCE_ENTRY: "CCGACTGGGGCAAGGTTACCACAACGCACAGCCA"
  CLASS_LABEL: "label 1"
- SEQUENCE_ENTRY: "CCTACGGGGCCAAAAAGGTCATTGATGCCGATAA"
  CLASS_LABEL: "label 0"

Could you verify whether the entry CGTTAAAGTTCAACTAAGGTAACGTAAAGCACGC shows PBM binding z-score of no less than 2?
label 1

Could you verify whether the entry ATCGAAAGGTCGAGGAGAGTATAGAGAAAGGGAA shows PBM binding z-score of no less than 2?
label 1

Could you verify whether the entry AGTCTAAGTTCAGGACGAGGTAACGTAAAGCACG shows PBM binding z-score of no less than 2?
label 0

Could you verify whether the entry AGAACGAGGGCTATGAGTTGATAGCACGGGTGGC shows PBM binding z-score of no less than 2?
label 0

Could you verify whether the entry TCTTGTAGATCAACAGGGGGTTAAGAAAGATCGA shows PBM binding z-score of no less than 2?
label 0

Could you verify whether the entry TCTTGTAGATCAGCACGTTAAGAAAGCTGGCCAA shows PBM binding z-score of no less than 2?
label 0
